assay: pharmacokinetic study in mice (serum and brain, non-compartmental analysis); format: in vivo, mouse; details: male, CD-1, mouse, ip, serum, 25 mg/kg i.p.
endpoint_name: MRT (min)
Report only the number, with the unit min understood.

Query: Given CC(=O)N[C@@H](C(=O)N1CCN(c2cccc(OC(F)(F)F)c2)CC1)c1ccccc1 [(R)-32] , respond with its MRT.
Reply: 42.3

###

assay: pharmacokinetic study in mice (serum and brain, non-compartmental analysis); assay type: in vivo, mouse; conditions: male, CD-1, mouse, ip, serum, 25 mg/kg i.p.
endpoint_name: CL/F (mL/min/kg)
Report only the number, with the unit mL/min/kg understood.

Query: Given CC(=O)N[C@@H](C(=O)N1CCN(c2cccc(OC(F)(F)F)c2)CC1)c1ccccc1 [(R)-32] , respond with its CL/F.
Reply: 110

###

assay: pharmacokinetic study in mice (serum and brain, non-compartmental analysis); assay type: in vivo, mouse; details: male, CD-1, mouse, po, serum, 25 mg/kg p.o.
endpoint_name: CL/F (mL/min/kg)
Report only the number, with the unit mL/min/kg understood.

Query: Given CC(=O)N[C@@H](C(=O)N1CCN(c2cccc(OC(F)(F)F)c2)CC1)c1ccccc1 [(R)-32] , respond with its CL/F.
Reply: 210

###

test: pharmacokinetic study in mice (serum and brain, non-compartmental analysis); assay type: in vivo, mouse; conditions: male, CD-1, mouse, po, serum, 25 mg/kg p.o., read-out: λz (converted)
endpoint_name: k el
# output: numeric value plus its unit

Query: Given CC(=O)N[C@@H](C(=O)N1CCN(c2cccc(OC(F)(F)F)c2)CC1)c1ccccc1 [(R)-32] , respond with its k el.
Reply: 8.33e-05 s⁻¹

###

assay: pharmacokinetic study in mice (serum and brain, non-compartmental analysis); assay type: in vivo, mouse; settings: male, CD-1, mouse, brain and serum, po, 25 mg/kg p.o., read-out: Brain-to-serum AUC ratio
endpoint_name: Kp

Query: Given CC(=O)N[C@@H](C(=O)N1CCN(c2cccc(OC(F)(F)F)c2)CC1)c1ccccc1 [(R)-32] , respond with its Kp.
Reply: 1.3

###

assay: pharmacokinetic study in mice (serum and brain, non-compartmental analysis); format: in vivo, mouse; conditions: male, CD-1, mouse, po, serum, 25 mg/kg p.o.
endpoint_name: MRT (h)
Report only the number, with the unit h understood.

Query: Given CC(=O)N[C@@H](C(=O)N1CCN(c2cccc(OC(F)(F)F)c2)CC1)c1ccccc1 [(R)-32] , respond with its MRT.
Reply: 2.6

###

Assay: pharmacokinetic study in mice (serum and brain, non-compartmental analysis)
Type: in vivo, mouse
Conditions: male, CD-1, mouse, brain and serum, ip, 25 mg/kg i.p., read-out: Brain-to-serum AUC ratio
Procedure: They were housed in conditions of constant temperature with the 12:12 h light–dark cycle and free access to food and water. […] Samples were kept at −80 °C until they were analyzed. […] Concentrations of compound (R)-32 in mouse serum and brain tissue were measured using a liquid chromatography tandem mass spectrometry method (LC-MS/MS). […] The limits used for quantification were 0.001 to 5, 0.1 to 20 μg/mL for serum, and 0.005 to 25 μg/g for brain tissue. […]
endpoint_name: Kp
Give the figure by itself; no unit, no explanation.

Query: Given CC(=O)N[C@@H](C(=O)N1CCN(c2cccc(OC(F)(F)F)c2)CC1)c1ccccc1 [(R)-32] , respond with its Kp.
Reply: 1.2

###

assay: pharmacokinetic study in mice (serum and brain, non-compartmental analysis); format: in vivo, mouse; conditions: male, CD-1, mouse, ip, brain, 25 mg/kg i.p., read-out: t1/2 λz
endpoint_name: half-life (min)
Report only the number, with the unit min understood.

Query: Given CC(=O)N[C@@H](C(=O)N1CCN(c2cccc(OC(F)(F)F)c2)CC1)c1ccccc1 [(R)-32] , respond with its half-life.
Reply: 80.5

###

assay: pharmacokinetic study in mice (serum and brain, non-compartmental analysis); assay type: in vivo, mouse; settings: male, CD-1, mouse, po, serum, 25 mg/kg p.o., read-out: Vz/F
endpoint_name: Vd/F (L/kg)
Report only the number, with the unit L/kg understood.

Query: Given CC(=O)N[C@@H](C(=O)N1CCN(c2cccc(OC(F)(F)F)c2)CC1)c1ccccc1 [(R)-32] , respond with its Vd/F.
Reply: 38.5

Where do these numbers come from? They come from paper PMC11378297.
